Value source: ChEMBL document CHEMBL3352133

- run description: Lipophilicity, logP of the compound
- Format: physicochemical
- study conditions: octanol/water
metric: logP
Answers are plain numbers.

Observe how each entry below is paired with its result.
C[C@H]1[C@@H](CC(COC(=O)c2cc(Cl)nc(Cl)c2)C[C@H]2O[C@@H]3O[C@@]4(C)CC[C@H]5[C@H](C)CC[C@@H]([C@H]2C)[C@@]35OO4)O[C@@H]2O[C@@]3(C)CC[C@H]4[C@H](C)CC[C@@H]1[C@@]24OO3 9.5
C[C@H]1[C@@H](CC(COC(=O)c2cc(Cl)cc(Cl)c2)C[C@H]2O[C@@H]3O[C@@]4(C)CC[C@H]5[C@H](C)CC[C@@H]([C@H]2C)[C@@]35OO4)O[C@@H]2O[C@@]3(C)CC[C@H]4[C@H](C)CC[C@@H]1[C@@]24OO3 10.2
C[C@H]1[C@@H](CC(COC(=O)c2cc(F)cc(F)c2)C[C@H]2O[C@@H]3O[C@@]4(C)CC[C@H]5[C@H](C)CC[C@@H]([C@H]2C)[C@@]35OO4)O[C@@H]2O[C@@]3(C)CC[C@H]4[C@H](C)CC[C@@H]1[C@@]24OO3 9.3

Okay, now this compound:
(Q) State, in one line, measured logP of `Cc1cc(C(=O)OCC(C[C@H]2O[C@@H]3O[C@@]4(C)CC[C@H]5[C@H](C)CC[C@@H]([C@H]2C)[C@@]35OO4)C[C@H]2O[C@@H]3O[C@@]4(C)CC[C@H]5[C@H](C)CC[C@@H]([C@H]2C)[C@@]35OO4)cc(Cl)n1`
(A) 9.5

* * *

- Test system: Plasmodium berghei
- run description: Antimalarial activity Plasmodium berghei ANKA infected in C57BL/6J mouse assessed as mouse survival at 6 mg/kg, po administered as single dose combined with 18 mg/kg mefloquine hydrochloride
- Assay type: functional
metric: Survival
Answers without a unit are incomplete; give the number and then its unit.

Observe how each entry below is paired with its result.
compound	Survival
Cc1cc(C(=O)OCC(C[C@H]2O[C@@H]3O[C@@]4(C)CC[C@H]5[C@H](C)CC[C@@H]([C@H]2C)[C@@]35OO4)C[C@H]2O[C@@H]3O[C@@]4(C)CC[C@H]5[C@H](C)CC[C@@H]([C@H]2C)[C@@]35OO4)cc(C)n1	25.8 days
C[C@H]1[C@@H](CC(CO)C[C@H]2O[C@@H]3O[C@@]4(C)CC[C@H]5[C@H](C)CC[C@@H]([C@H]2C)[C@@]35OO4)O[C@@H]2O[C@@]3(C)CC[C@H]4[C@H](C)CC[C@@H]1[C@@]24OO3 (some centres not stated)	26 days
C[C@H]1[C@@H](CC(COC(=O)c2ccc(Cl)nc2Cl)C[C@H]2O[C@@H]3O[C@@]4(C)CC[C@H]5[C@H](C)CC[C@@H]([C@H]2C)[C@@]35OO4)O[C@@H]2O[C@@]3(C)CC[C@H]4[C@H](C)CC[C@@H]1[C@@]24OO3	30 days
C[C@H]1[C@@H](CC(COC(=O)c2ccncc2)C[C@H]2O[C@@H]3O[C@@]4(C)CC[C@H]5[C@H](C)CC[C@@H]([C@H]2C)[C@@]35OO4)O[C@@H]2O[C@@]3(C)CC[C@H]4[C@H](C)CC[C@@H]1[C@@]24OO3	24.3 days
C[C@H]1[C@@H](CC(COC(=O)c2ccnc(Cl)c2Cl)C[C@H]2O[C@@H]3O[C@@]4(C)CC[C@H]5[C@H](C)CC[C@@H]([C@H]2C)[C@@]35OO4)O[C@@H]2O[C@@]3(C)CC[C@H]4[C@H](C)CC[C@@H]1[C@@]24OO3	26 days

For every record below, what is its Survival?
1. C[C@H]1[C@@H](CC(COC(=O)c2cc(F)cc(F)c2)C[C@H]2O[C@@H]3O[C@@]4(C)CC[C@H]5[C@H](C)CC[C@@H]([C@H]2C)[C@@]35OO4)O[C@@H]2O[C@@]3(C)CC[C@H]4[C@H](C)CC[C@@H]1[C@@]24OO3
2. C[C@H]1[C@@H](CC(COC(=O)c2cc(Cl)cc(Cl)c2)C[C@H]2O[C@@H]3O[C@@]4(C)CC[C@H]5[C@H](C)CC[C@@H]([C@H]2C)[C@@]35OO4)O[C@@H]2O[C@@]3(C)CC[C@H]4[C@H](C)CC[C@@H]1[C@@]24OO3

(A)
1. 29 days
2. 30 days

* * *

- Tested on: Plasmodium berghei
- run description: Antimalarial activity Plasmodium berghei ANKA infected in C57BL/6J mouse assessed as mouse survival at 6 mg/kg, po administered as single dose combined with 18 mg/kg mefloquine hydrochloride
- Assay type: functional
metric: Survival (days)
Give bare numbers, in days.

Observe how each entry below is paired with its result.
compound	Survival [days]
CO[C@H]1O[C@@H]2O[C@@]3(C)CC[C@H]4[C@H](C)CC[C@@H]([C@H]1C)[C@@]24OO3 [ARTEMETHER]	20.8
C[C@H]1[C@@H](CC(COC(=O)c2cc(Cl)nc(Cl)c2)C[C@H]2O[C@@H]3O[C@@]4(C)CC[C@H]5[C@H](C)CC[C@@H]([C@H]2C)[C@@]35OO4)O[C@@H]2O[C@@]3(C)CC[C@H]4[C@H](C)CC[C@@H]1[C@@]24OO3	25.8
Cc1cc(C(=O)OCC(C[C@H]2O[C@@H]3O[C@@]4(C)CC[C@H]5[C@H](C)CC[C@@H]([C@H]2C)[C@@]35OO4)C[C@H]2O[C@@H]3O[C@@]4(C)CC[C@H]5[C@H](C)CC[C@@H]([C@H]2C)[C@@]35OO4)cc(Cl)n1	28.5

Okay, now this compound:
(Q) State, in one line, measured Survival of `C[C@H]1[C@@H](CC(COC(=O)c2cc(F)nc(F)c2)C[C@H]2O[C@@H]3O[C@@]4(C)CC[C@H]5[C@H](C)CC[C@@H]([C@H]2C)[C@@]35OO4)O[C@@H]2O[C@@]3(C)CC[C@H]4[C@H](C)CC[C@@H]1[C@@]24OO3`
(A) 23.5

* * *

- run description: Stability in pH 2 in acetonitrile and water at 37 degC
- Format: physicochemical
- study conditions: acetonitrile and water at pH 2, pH 2; read-out: Stability (converted)
Assign half-life to each entry below.
One number for each entry, in h.

C[C@H]1[C@@H](CC(COC(=O)c2ccc(Cl)nc2Cl)C[C@H]2O[C@@H]3O[C@@]4(C)CC[C@H]5[C@H](C)CC[C@@H]([C@H]2C)[C@@]35OO4)O[C@@H]2O[C@@]3(C)CC[C@H]4[C@H](C)CC[C@@H]1[C@@]24OO3 96

Okay, now this compound:
(Q) State, in one line, measured half-life of `C[C@H]1[C@@H](CC(COC(=O)c2cc(Cl)cc(Cl)c2)C[C@H]2O[C@@H]3O[C@@]4(C)CC[C@H]5[C@H](C)CC[C@@H]([C@H]2C)[C@@]35OO4)O[C@@H]2O[C@@]3(C)CC[C@H]4[C@H](C)CC[C@@H]1[C@@]24OO3`
(A) 96

* * *

- run description: Lipophilicity, logP of the compound
- Assay type: physicochemical
- study conditions: octanol/water
metric: logP
Numbers only.

C[C@H]1[C@@H](CC(COC(=O)c2ccnc(Cl)c2Cl)C[C@H]2O[C@@H]3O[C@@]4(C)CC[C@H]5[C@H](C)CC[C@@H]([C@H]2C)[C@@]35OO4)O[C@@H]2O[C@@]3(C)CC[C@H]4[C@H](C)CC[C@@H]1[C@@]24OO3 9.2

Okay, now this compound:
(Q) State, in one line, measured logP of `C[C@H]1[C@@H](CC(COC(=O)c2ccc(Cl)nc2Cl)C[C@H]2O[C@@H]3O[C@@]4(C)CC[C@H]5[C@H](C)CC[C@@H]([C@H]2C)[C@@]35OO4)O[C@@H]2O[C@@]3(C)CC[C@H]4[C@H](C)CC[C@@H]1[C@@]24OO3`
(A) 9.5
